# reported growth; entries follow
Tested on: SF-539 CNS
Assay: NCI-60 one-dose screen, 48 h (100 = growth as untreated, 0 = no growth, -100 = all killed)
Conditions: 10 µM unless noted
This is part of a sample that, as a whole, favours compounds with a hit. Of some 83,000 tested, about 20% had one in any assay.
Parameter: growth (%)

Molecule: O=S(=O)(NCCCNc1nccc(-c2c(-c3ccc(F)c(O)c3)nc3sccn23)n1)c1ccc(Cl)cc1
Parameter: growth
Number: 103
--
Molecule: OC1CC2c3ccccc3C1c1ccccc12 (centres undefined)
Parameter: growth
Number: 108
--
Molecule: COc1ccc(NC(=O)CSc2nc3ccc(Cl)cc3c(=O)n2-c2ccccc2C(F)(F)F)c(OC)c1OC
Parameter: growth
Number: 66.9
--
Molecule: O=C(CCl)NCCNc1nccc(Nc2ccc(S(=O)(=O)Nc3ccccn3)cc2)n1
Parameter: growth
Number: -15.2
--
Molecule: CCNC(=O)C1CCCN1C(=O)C(CCCN=C(N)N)NC(=O)C(CC(C)C)NC(=O)C(CC(C)C)NC(=O)C(Cc1ccc(O)cc1)NC(=O)C(CO)NC(=O)C(Cc1c[nH]c2ccccc12)NC(=O)C(Cc1cnc[nH]1)NC(=O)C1CCC(=O)N1 (centres undefined)
Parameter: growth
Number: 96.1
--
Molecule: CC(=O)Nc1ccc(S(=O)(=O)NC(CCC(=O)Nc2ccc(Cl)cc2)C(=O)O)cc1 (centres undefined)
Parameter: growth
Number: 99.2
--
Molecule: O=C(Cc1c(F)cccc1Cl)Nc1ccc(S(=O)(=O)Nc2ncccn2)cc1
Parameter: growth
Number: 96.5
--
Molecule: CCN1C(=O)N[C@H]2[C@@H]3NC(=O)c4ccc(Cl)n4[C@@H]3C[C@]21O
Parameter: growth
Number: -33.5
--
Molecule: Nc1ccc(S(=O)(=O)c2ccc(Cl)cc2)cc1
Parameter: growth
Number: 86

###

Test system: SK-OV-3 ovarian
Test: NCI-60 one-dose screen, 48 h (100 = growth as untreated, 0 = no growth, -100 = all killed)
Details: 10 µM unless noted
The panel holds about 83,000 compounds, 20% with a hit somewhere; the sample as a whole holds those more often.

Molecule: O=C(CN1CCN(c2cc3c(cc2F)c(=O)c(C(=O)O)cn3C2CC2)CC1)Nc1ccc(C(=O)/C=C/c2ccccc2)cc1
Tested System: SK-OV-3 ovarian
growth, %: 93.6

Molecule: C=CCN=C1NC(=O)/C(=C/c2cc(C(C)(C)C)c(O)c(C(C)(C)C)c2)S1
Tested System: SK-OV-3 ovarian
growth, %: 74.8

Molecule: C/C1=C\CCC2(C)OC2CC2CCC(C)(O)C(CC1)C2(C)C (centres undefined)
Tested System: SK-OV-3 ovarian
growth, %: 112

Molecule: C=CCn1c(C)nc2ccc(Nc3nc(Nc4ccc(F)cc4)nc4ccccc34)cc21
Tested System: SK-OV-3 ovarian
growth, %: 98.6

Molecule: Nc1c(C(=O)Nc2cccc([N+](=O)[O-])c2)sc2nc3c(cc12)C(O)CCC3 (centres undefined)
Tested System: SK-OV-3 ovarian
growth, %: 46.3

Molecule: c1ccc2c(c1)Oc1ccccc1C2C1c2ccccc2Oc2ccccc21
Tested System: SK-OV-3 ovarian
growth, %: 105

Molecule: Clc1nc2ccccc2nc1CI
Tested System: SK-OV-3 ovarian
growth, %: 104

Molecule: CC1CCc2c(sc(NC(=O)CSc3nnc4ccccn34)c2C(N)=O)C1 (centres undefined)
Tested System: SK-OV-3 ovarian
growth, %: 131

Molecule: COc1ccc(C(=O)c2cc(OC)c(OC)c(OC)c2)cc1/C=C/C(=O)c1ccc(O)cc1
Tested System: SK-OV-3 ovarian
growth, %: 18.5

Molecule: Nc1nc(-c2cc3ccccc3o2)cc(=O)c(=O)[nH]1
Tested System: SK-OV-3 ovarian
growth, %: 96.7

Molecule: COc1ccc(S(=O)(=O)Nc2cc(/C=C\c3cc(OC)c(OC)c(OC)c3)cc(OC)c2OC)cc1OC
Tested System: SK-OV-3 ovarian
growth, %: 17.1

Molecule: O=C(CCC(=O)OC1CCCC1)OC1CCCC1
Tested System: SK-OV-3 ovarian
growth, %: 110

Molecule: CCOC(=O)C1=C(C)NC(=O)NC1c1ccc(OCC(=O)N/N=C/c2ccc(Cl)cc2)cc1 (centres undefined)
Tested System: SK-OV-3 ovarian
growth, %: 88.9

Molecule: Nc1c(C(=O)Nc2ccccc2)sc2nc3c(cc12)CCCCC3
Tested System: SK-OV-3 ovarian
growth, %: 17.1

Molecule: COc1cc(Cn2c(SCC(=O)Nc3cc(OC)c(OC)c(OC)c3)nc3ccccc3c2=O)cc(OC)c1OC
Tested System: SK-OV-3 ovarian
growth, %: 51.2

Molecule: NC(C(=O)O)C(O)c1ccc(OCc2ccccc2)c(OCc2ccccc2)c1 (centres undefined)
Tested System: SK-OV-3 ovarian
growth, %: 103

Molecule: O=S(=O)(NCCCNc1cc(-c2cn(-c3ccccc3)nc2-c2cccc(O)c2)ccn1)c1cccc2ccccc12
Tested System: SK-OV-3 ovarian
growth, %: 58.8

Molecule: COc1ccc(S(=O)(=O)N2CCN(c3cc4c(cc3F)c(=O)c(C(=O)O)cn4C3CC3)CC2)c(OC)c1
Tested System: SK-OV-3 ovarian
growth, %: 98.6

Molecule: C=C1C(=O)O[C@H]2[C@H]1CC/C(COC(=O)NCCc1ccc(OC)cc1)=C\CC[C@@]1(C)O[C@@H]21
Tested System: SK-OV-3 ovarian
growth, %: 89.3

Molecule: Cc1c(C(=O)NCc2ccccc2)[n+](=O)c2cc(F)ccc2n1[O-]
Tested System: SK-OV-3 ovarian
growth, %: 109

Molecule: Cc1cc(C(=O)CSc2nc3ccccc3c(=O)[nH]2)c(C)n1C
Tested System: SK-OV-3 ovarian
growth, %: 108

Molecule: CCOC(=O)CC(C#N)(CC(=O)OCC)C(=O)OCC
Tested System: SK-OV-3 ovarian
growth, %: 117

Molecule: COc1ccc(C(=O)/C=C/c2cc(C(=O)c3cc(OC)c(OC)c(OC)c3)ccc2OC)cc1
Tested System: SK-OV-3 ovarian
growth, %: 90

Molecule: COc1cc(C2C=C(C)N=C3SC(C)=NN32)cc(OC)c1OC (centres undefined)
Tested System: SK-OV-3 ovarian
growth, %: 92.5

Molecule: CC(=O)OC[Si](C)(C)c1ccccc1
Tested System: SK-OV-3 ovarian
growth, %: 103

Molecule: CCCCCCCCCCC/C=C\C[C@H](O)C/C=C1/C(=O)C=C[C@@H]1C/C=C\CCCC(=O)OC
Tested System: SK-OV-3 ovarian
growth, %: 26.8

Molecule: NC(=O)NNC(=O)c1ccccc1
Tested System: SK-OV-3 ovarian
growth, %: 123

Molecule: c1ccc([P+](CCC[P+](c2ccccc2)(c2ccccc2)c2ccccc2)(c2ccccc2)c2ccccc2)cc1
Tested System: SK-OV-3 ovarian
growth, %: 93.2

Molecule: COc1ccc(NC(=O)c2cc3ccccc3nc2Nc2cc(OC)c(OC)c(OC)c2)cc1
Tested System: SK-OV-3 ovarian
growth, %: 91.7

Molecule: COc1ccccc1CNCCCN1C(=O)c2ccc3c4c(ccc(c24)C1=O)C(=O)N(CCCNCCCCNCCCCN)C3=O
Tested System: SK-OV-3 ovarian
growth, %: 28

Molecule: NCCSC(c1ccccc1)(c1ccccc1)c1ccccc1
Tested System: SK-OV-3 ovarian
growth, %: 27.6

Molecule: Cc1cccc2cc(/C=C/C(=O)/C=C/c3ccc(Cl)cc3)c(=O)[nH]c12
Tested System: SK-OV-3 ovarian
growth, %: 91.5

Molecule: CC(=O)C1CCC(C)=CC1=O (centres undefined)
Tested System: SK-OV-3 ovarian
growth, %: 100

Molecule: Nc1cc2c(cc1N)-c1cc(N)c(N)cc1C2
Tested System: SK-OV-3 ovarian
growth, %: 99.2
